Ref: PubChem BioAssay AID248

# key: entry, value: T/C
Test system: L1210 leukemia ip in BDF1 mice, survival T/C
Experiment description: NCI In Vivo Anticancer Drug Screen. Data for tumor model L1210 Leukemia (intraperitoneal) in B6D2F1 (BDF1) mice
Run conditions: endpoint: mean survival time; dose: 50.0 mg/kg/injection; schedule: Q04DX003 (ip); vehicle: saline; higher = longer survival
Procedure: The antitumor activity of compounds was measured in mice bearing transplantable tumors. Survival or tumor size were measured and the results are expressed as the measurement made in the treated group (T) divided by the measurement made in the vehicle treated control group (C). The tumor model used in this assay is L1210 Leukemia (intraperitoneal) in B6D2F1 (BDF1) mice
Toxic doses and inconclusive results are not listed.

CCN(CC)CCOc1ccccc1Br : 97 % of control
C[NH-].C[NH-].C[NH-].[Cl][Rh]([Cl])[Cl] : 96 % of control
CCN(CC)CC(=O)NCC(CCN(C)C)(c1ccc2ccccc2c1)C(C)C (stereo not drawn) : 94 % of control
COC(=O)C1CCC[N+](C)(C)C1 (stereo not drawn) : 97 % of control
CCCC[n+]1cnc(N)c2[nH]cnc21 : 93 % of control
CCC(C)C(CN)(CCN(C)C)Cc1cccc2ccccc12 (stereo not drawn) : 101 % of control
Cc1nc2ccc(O)cc2cc1CBr : 97 % of control

// next item, T/C requested
Request: T/C, test system L1210 leukemia ip in BDF1 mice, survival T/C, entry CCOC(=O)c1ccc(NCC(C)(C)N(C)C)cc1
95 % of control
